target: Glucocorticoid receptor (Homo sapiens) (UniProt P04150); assay: GR-EFC Redistribution (AID 451); details: CHO-K1 GR-EFC translocation, beta-gal luminescence, 2 h; also: potency is read from the fitted curve at half-maximal effect
Sequence (P04150 whole entry, looked up): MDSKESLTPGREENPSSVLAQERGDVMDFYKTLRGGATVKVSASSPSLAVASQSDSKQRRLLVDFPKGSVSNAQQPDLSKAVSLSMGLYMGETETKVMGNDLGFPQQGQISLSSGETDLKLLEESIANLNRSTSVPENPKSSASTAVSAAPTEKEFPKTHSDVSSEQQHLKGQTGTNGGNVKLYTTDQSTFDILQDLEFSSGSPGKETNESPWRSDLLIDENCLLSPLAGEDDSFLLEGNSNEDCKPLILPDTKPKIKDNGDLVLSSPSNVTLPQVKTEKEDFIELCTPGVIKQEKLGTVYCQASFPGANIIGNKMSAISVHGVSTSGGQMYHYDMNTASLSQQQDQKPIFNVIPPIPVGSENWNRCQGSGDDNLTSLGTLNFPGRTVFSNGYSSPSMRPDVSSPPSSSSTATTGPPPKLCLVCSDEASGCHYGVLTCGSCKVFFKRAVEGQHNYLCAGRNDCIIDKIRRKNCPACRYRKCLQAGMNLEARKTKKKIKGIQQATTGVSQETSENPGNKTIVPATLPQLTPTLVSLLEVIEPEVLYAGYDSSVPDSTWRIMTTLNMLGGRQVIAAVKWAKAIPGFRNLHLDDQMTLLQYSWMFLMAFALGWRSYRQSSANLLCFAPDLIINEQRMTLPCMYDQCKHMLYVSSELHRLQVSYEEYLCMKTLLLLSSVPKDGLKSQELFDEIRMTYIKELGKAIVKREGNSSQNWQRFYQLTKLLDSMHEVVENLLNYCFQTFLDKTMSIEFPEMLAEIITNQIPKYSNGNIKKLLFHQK
Active and inactive are the calls of the source. Calls follow the shape of the full dose curve.
experimentalReadout: Potency

inputSmiles	Potency
c1ccc(N2CCC3(CCNCC3)CC2)cc1	> 46 µM (inactive)
O=C(Nc1cccc(F)c1)N1CCC2(CC1)CCN(C(=O)Oc1ccccc1)CC2	> 46 µM (inactive)
C[C@@]12CC[C@H](O)C[C@@H]1CC[C@H]1[C@@H]2C[C@@H](O)[C@]2(C)[C@@H](C3=CC(=O)OC3)CC[C@]12O	> 20.6 µM (inactive)
O=C(O)CNCP(=O)(O)O	> 9.22 µM (inactive)
O=C(Nc1cccc(F)c1)N1CC2(CCNCC2)C1	> 46 µM (inactive)
CN(C)[C@@H]1C(=O)C(C(N)=O)=C(O)[C@]2(O)C(=O)C3=C(O)c4c(O)cccc4[C@@](C)(O)[C@@H]3C[C@@H]12	> 46 µM (inactive)

// query API: value(readout= Potency, system= Glucocorticoid receptor (Homo sapiens) (UniProt P04150), query= N#Cc1ccc(CN2CC[C@@]3(CCCNC3)C2)cc1 )
// result > 46 µM (inactive)

// query API: value(readout= Potency, system= Glucocorticoid receptor (Homo sapiens) (UniProt P04150), query= O=C(Nc1ccccc1)N1CCC2(CC1)CCN(C(=O)Oc1ccccc1)CC2 )
// result > 46 µM (inactive)

// query API: value(readout= Potency, system= Glucocorticoid receptor (Homo sapiens) (UniProt P04150), query= O=C(Oc1ccccc1)N1CCC2(CCN(Cc3ccccc3)CC2)CC1 )
// result > 46 µM (inactive)

// query API: value(readout= Potency, system= Glucocorticoid receptor (Homo sapiens) (UniProt P04150), query= O=C(O)C1=CCCN(CCOC(c2ccc(C(F)(F)F)cc2)c2ccc(C(F)(F)F)cc2)C1 )
// result > 46 µM (inactive)

// query API: value(readout= Potency, system= Glucocorticoid receptor (Homo sapiens) (UniProt P04150), query= C[C@@]12CC[C@H]3[C@@H](CC[C@@H]4C[C@H]5S[C@H]5C[C@]43C)[C@H]1CC[C@H]2O )
// result > 20.6 µM (inactive)

// query API: value(readout= Potency, system= Glucocorticoid receptor (Homo sapiens) (UniProt P04150), query= CC(C)[C@@]1(NC(=O)[C@@H]2C[C@H]3c4cccc5[nH]cc(c45)C[C@@H]3N(C)C2)O[C@]2(O)[C@H]3CCCN3C(=O)[C@H](Cc3ccccc3)N2C1=O )
// result > 20.6 µM (inactive)

// query API: value(readout= Potency, system= Glucocorticoid receptor (Homo sapiens) (UniProt P04150), query= CC(C)NC(=O)N1CCCC2(CCN(C(=O)Oc3ccccc3)CC2)C1 )
// result > 46 µM (inactive)

// query API: value(readout= Potency, system= Glucocorticoid receptor (Homo sapiens) (UniProt P04150), query= CS(=O)(=O)N1CCC2(CCCN(Cc3ccncc3)C2)CC1 )
// result > 46 µM (inactive)

// query API: value(readout= Potency, system= Glucocorticoid receptor (Homo sapiens) (UniProt P04150), query= C/C=C1\C[C@H](C)[C@@](O)(CO)C(=O)OCC2=CCN3CC[C@@H](OC1=O)[C@@H]23 )
// result > 20.6 µM (inactive)

// query API: value(readout= Potency, system= Glucocorticoid receptor (Homo sapiens) (UniProt P04150), query= C[C@@]12CC[C@H]3[C@@H](CC[C@]4(O)C[C@H](O)CC[C@@]34C=O)[C@]1(O)CC[C@@H]2C1=CC(=O)OC1 )
// result > 20.6 µM (inactive)

// query API: value(readout= Potency, system= Glucocorticoid receptor (Homo sapiens) (UniProt P04150), query= COc1cc2c(cc1O)[C@H]1Cc3ccc(OC)c(O)c3CN1CC2 )
// result > 20.6 µM (inactive)

// query API: value(readout= Potency, system= Glucocorticoid receptor (Homo sapiens) (UniProt P04150), query= CN1[C@@H]2CCC[C@H]1CC(=O)C2 )
// result > 20.6 µM (inactive)

// query API: value(readout= Potency, system= Glucocorticoid receptor (Homo sapiens) (UniProt P04150), query= CN1CC[C@@]2(CCCN(C(=O)c3csnn3)C2)C1 )
// result > 46 µM (inactive)

// query API: value(readout= Potency, system= Glucocorticoid receptor (Homo sapiens) (UniProt P04150), query= O=C(Oc1ccccc1)N1CCC2(CC1)CCN(C(c1ccccc1)c1ccccc1)CC2 )
// result > 46 µM (inactive)

// query API: value(readout= Potency, system= Glucocorticoid receptor (Homo sapiens) (UniProt P04150), query= N#Cc1ccc(CN2CCC3(CC2)CCN(C(=O)Oc2ccccc2)CC3)cc1 )
// result > 46 µM (inactive)

// query API: value(readout= Potency, system= Glucocorticoid receptor (Homo sapiens) (UniProt P04150), query= O=C(Oc1ccccc1)N1CCC[C@@]2(CCN(Cc3cc(C(F)(F)F)cc(C(F)(F)F)c3)C2)C1 )
// result > 46 µM (inactive)
